system.tested: human NK2 receptor (Homo sapiens, UniProt P21452)
experiment.summary: [3H]SR48968 competition binding assay
test.context: [3H]SR48968 displacement, membranes of CHO cells stably expressing recombinant human NK2 receptor; Ki from IC50 by Cheng-Prussoff
Listed molecules paired with reported pKi
The meaning of pKi here: minus log10 of the concentration in molar units.

As a guide, the following entries are already answered.
In [3]: df
Out[3]:
                                   molecule  quantitative_readout
0  CN(C(=O)c1ccc(Cl)c(C(F)(F)F)c1)[C@H]1CN(C(=O)C2CCN(CC3CC3)CC2)C[C@@H]1c1ccc(Cl)cc1                  7.28
1  CN(C(=O)Cc1ccc(Cl)cc1)[C@H]1CN(C(=O)C2CCN(CC3CC3)CC2)C[C@@H]1c1ccc(Cl)c(Cl)c1 (racemic)                  7.60
2  CN(C(=O)c1ccc(C(F)(F)F)nc1)[C@@H]1CN(C(=O)c2ccc(C#N)cc2)C[C@H]1c1ccc(Cl)c(Cl)c1 (racemic)                  8.24
3  COc1cc(C(=O)N(C)[C@@H]2CN(C(=O)c3ccc(C#N)cc3)C[C@H]2c2ccc(Cl)c(Cl)c2)nc2ccccc12 (racemic)                  7.28
4  COc1ccc(C(=O)N(C)[C@@H]2CN(C(=O)c3ccc(N(C)C)cc3)C[C@H]2c2ccc(Cl)c(Cl)c2)cc1C(F)(F)F (racemic)                  8.53

stdin: Record request: pKi value, item CN(C(=O)c1ccc(C#N)cc1)[C@@H]1CN(C(=O)N2CCN(S(C)(=O)=O)CC2)C[C@H]1c1ccc(Cl)c(Cl)c1 (racemic)
stdout: 7.63

stdin: pKi for COc1ccc(C(=O)N(C)[C@H]2CN(C(=O)C3CCN(CCC(F)(F)F)CC3)C[C@@H]2c2ccc(Cl)cc2)cc1C(F)(F)F (racemic) ?
stdout: 9.10

stdin: Item under review: COc1ccc(C(=O)N(C)[C@@H]2CN(C(=O)N3CCN(S(C)(=O)=O)CC3)C[C@H]2c2ccc(Cl)c(Cl)c2)cc1F (racemic) . Reported pKi?
stdout: 8.02

stdin: Which measured pKi value corresponds to Cc1ccc(C(=O)N(C)[C@@H]2CN(C(=O)c3ccc(C#N)cc3)C[C@H]2c2ccc(Cl)c(Cl)c2)cn1 (racemic) ?
stdout: 7.54

---

system.tested: human NK2 receptor (Homo sapiens)
Sequence (P21452 1-398): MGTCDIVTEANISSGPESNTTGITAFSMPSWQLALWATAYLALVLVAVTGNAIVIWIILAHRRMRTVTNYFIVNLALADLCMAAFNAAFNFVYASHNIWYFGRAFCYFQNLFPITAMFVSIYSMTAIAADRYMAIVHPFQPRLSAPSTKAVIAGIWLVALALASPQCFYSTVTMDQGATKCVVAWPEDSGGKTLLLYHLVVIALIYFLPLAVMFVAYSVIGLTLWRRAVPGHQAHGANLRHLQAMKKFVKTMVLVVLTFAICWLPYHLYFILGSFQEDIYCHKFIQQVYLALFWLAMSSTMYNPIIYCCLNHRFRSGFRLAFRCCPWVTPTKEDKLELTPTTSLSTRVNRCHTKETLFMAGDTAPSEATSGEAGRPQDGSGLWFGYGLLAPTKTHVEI
experiment.summary: [3H]SR48968 competition binding assay
test.context: [3H]SR48968 displacement, membranes of CHO cells stably expressing recombinant human NK2 receptor; Ki from IC50 by Cheng-Prussoff
experimental.readout: pKi
Here pKi is given on a logarithmic scale as minus log10 of the concentration in mol/L.

                                   compound  quantitative_readout
0  CN(C(=O)c1ccc(F)cc1)[C@H]1CN(C(=O)C2CCN(C(=O)C3(C)CC3)CC2)C[C@@H]1c1ccc(Cl)c(Cl)c1 (racemic)                  8.64
1  CN(C(=O)c1ccc(-n2cccc2)cc1)[C@@H]1CN(C(=O)N2CCN(S(C)(=O)=O)CC2)C[C@H]1c1ccc(Cl)c(Cl)c1 (racemic)                  8.34
2  COc1ccc(C(=O)N(C)[C@H]2CN(C(=O)C3CCN(CCCSC)CC3)C[C@@H]2c2ccc(Cl)cc2)cc1C(F)(F)F (racemic)                  9.05
3  CN(C(=O)c1ccc(Cl)c(C(F)(F)F)c1)[C@H]1CN(C(=O)C2CCN(CCC#N)CC2)C[C@@H]1c1ccc(Cl)cc1 (racemic)                  8.89

Next, consider the following compound.
stdin: Using the record for CN(C(=O)c1ccc(Cl)c(C(F)(F)F)c1)[C@H]1CN(C(=O)C2CCNCC2)C[C@@H]1c1ccc(Cl)cc1 (racemic) , report its pKi.
stdout: 8.30
